Recorded GI50, one value per entry.
- Tested on: UACC-62 melanoma
- test_method_notes: NCI tumour cell line growth inhibition, 48 h

Example entries begin here.
O=c1oc(-c2ccc(O)c(O)c2)cc2cc(O)cc(O)c12; 33.8 µM
C/C(=C(/c1ccc(O)cc1)c1ccc(OCCN2CCCC2)cc1)c1ccccc1; 2.26 µM

Then there is this compound:
Recorded GI50 for CCOC(=O)c1[nH]c2c(c1C)-c1[nH]c(=O)c(S(=O)(=O)c3ccccc3)cc1SC2 , please? 46.7 µM

---

- Test system: SK-OV-3 ovarian
- test_method_notes: NCI tumour cell line growth inhibition, 48 h
reported_metric: TGI

Example entries begin here.
COC(=O)Cc1c(C2=Nc3ccccc3C2(O)CC(=O)OC)[nH]c2ccccc12 (stereo unspecified); > 100 µM
Cc1ccc(NCSc2ccc(Cl)cc2)cc1; > 100 µM
COc1cc(C2C3=C(COC3=O)N(CCO)c3cc4c(cc32)CCC4)cc(OC)c1O (stereo unspecified); > 32.5 µM

What reported TGI corresponds to CCC1OCCN1C(C)C (stereo unspecified) on SK-OV-3 ovarian? > 100 µM

What reported TGI corresponds to CN1CC2(CCCCC2)C(O)C12C=CCCC2 (stereo unspecified) on SK-OV-3 ovarian? > 100 µM

What reported TGI corresponds to COC(=O)c1c(C)oc2ccc(OC(C)=O)cc12 on SK-OV-3 ovarian? > 100 µM
